Please respond with reported TARC expression IC50 for every item in the list.
# studyTarget: human IL13 (human, UniProt P35225 35-146, biotinylated in the SPR assays (sites not given))
# Sequence (P35225 other isoform, or with tags, fused parts or gaps limits assumed): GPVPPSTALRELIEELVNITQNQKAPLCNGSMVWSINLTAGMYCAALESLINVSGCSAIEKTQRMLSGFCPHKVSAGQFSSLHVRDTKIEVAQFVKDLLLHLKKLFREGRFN
# protocolText: cell-based or functional assay
Give bare numbers, in nM.

Check out these entries, answers already filled in.
binder	unitTag	TARC expression IC50
6G11 (designed binder, N-Cap-(AR)3-C-Cap) DLGKKLLEAARAGQDDEVRILMANGADVNAEDILGITPLHLAAHHGHLEIVEVLLKHGADVNANDFAGYTPLHLAAVYGHLEIVEVLLKYGADVNATDAWGETPLHLAAYTGHLEIVEVLLKHDADVNAQDKFGKTAFDISIDNGNEDLAEILQKLN	nM	0.282
7D7 (designed binder, N-Cap-(AR)3-C-Cap) DLGKKLLEAARAGQDDEVRILMANGADVNATDTYGSTPLHLAARHCHQEIVEVLLKHGADVNANDFIGDTPLHLAAWHGHLEIVEVLLKNGADVNAMDVTGETPLHLAAYHGHLDIVEVLLKNGADVNAQDKFGKTAFDISIDNGNEDLAEILQKLN	nM	0.354

Moving on to another binder below.
Data request: For the binder 7C6 (designed binder, N-Cap-(AR)3-C-Cap) DLGKKLLEAARAGQDDEVRILMANGADVNAMDKYGSTPLHLAARSGHLEIVEVLLKHGADVNATDFIGDTPLHLAAYHGHLEIVEVLLKHGADVNAEDITGETPLHLAAESGHLEIVEVLLKHGADVNAQDKFGKTAFDISIDNGNEDLAEILQKLN , report TARC expression IC50.
Data returned: 0.159
